tested on: M. pachydermatis; details: broth microdilution, Sabouraud dextrose broth + 1% Tween 80, 48 h, ≥90% inhibition of growth, OD 595 nm
Where a SMILES comes first, the peptide text is derived from it. [ ]: non-standard residue; d: D form. Hyp = O=C(O)[C@@H]1C[C@@H](O)CN1; Aic = NC1(C(=O)O)Cc2ccccc2C1; dNle = CCCC[C@@H](N)C(=O)O
Would you kindly list MIC Values for each of these compounds?
Give bare numbers, in µM.

| compound | measure | display unit | assay result |
| --- | --- | --- | --- |
| CC[C@H](C)[C@H](NC(=O)[C@H](CCCNC(=N)N)NC(=O)[C@H](Cc1c[nH]c2ccccc12)NC(=O)[C@@H](CC(C)C)NC(=O)[C@H](Cc1ccccc1)NC(=O)[C@H](CCCCN)NC(=O)[C@H](CO)NC(=O)[C@H](Cc1ccccc1)NC(=O)[C@H](Cc1c[nH]c2ccccc12)NC(=O)[C@@H]1CCCN1C(=O)[C@@H](NC(=O)[C@@H](N)Cc1ccccc1)C(C)C)C(=O)N[C@@H](CC(C)C)C(N)=O [Peptide 9] (H-FVPWFSKF[dL]WRIL-NH2) | MIC Values | µM | 25 |
| CC[C@H](C)[C@H](NC(=O)[C@H](CCCNC(=N)N)NC(=O)[C@@H](Cc1c[nH]c2ccccc12)NC(=O)[C@@H](CC(C)C)NC(=O)[C@H](Cc1ccccc1)NC(=O)[C@H](CCCCN)NC(=O)[C@H](CO)NC(=O)[C@H](Cc1ccccc1)NC(=O)[C@H](Cc1c[nH]c2ccccc12)NC(=O)[C@@H]1CCCN1C(=O)[C@@H](NC(=O)[C@@H](N)Cc1ccccc1)C(C)C)C(=O)N[C@@H](CC(C)C)C(N)=O [Peptide 10] (H-FVPWFSKF[dL][dW]RIL-NH2) | MIC Values | µM | 12.5 |
| CCCC[C@@H](NC(=O)[C@@H](CC(C)C)NC(=O)[C@H](Cc1ccccc1)NC(=O)[C@H](CCCCN)NC(=O)[C@H](CO)NC(=O)[C@H](Cc1ccccc1)NC(=O)[C@H](Cc1c[nH]c2ccccc12)NC(=O)[C@@H]1CCCN1C(=O)[C@@H](NC(=O)[C@@H](N)Cc1ccccc1)C(C)C)C(=O)N[C@@H](CCCNC(=N)N)C(=O)N[C@H](C(=O)N[C@@H](CC(C)C)C(N)=O)[C@@H](C)CC [Peptide 6] (H-FVPWFSKF[dL][dNle]RIL-NH2; N-terminus assumed) | MIC Values | µM | 25 |
| CC[C@H](C)[C@H](NC(=O)[C@H](CCCNC(=N)N)NC(=O)C1(NC(=O)[C@@H](CC(C)C)NC(=O)[C@H](Cc2ccccc2)NC(=O)[C@H](CCCCN)NC(=O)[C@H](CO)NC(=O)[C@H](Cc2ccccc2)NC(=O)[C@H](Cc2c[nH]c3ccccc23)NC(=O)[C@@H]2CCCN2C(=O)[C@@H](NC(=O)[C@@H](N)Cc2ccccc2)C(C)C)Cc2ccccc2C1)C(=O)N[C@@H](CC(C)C)C(N)=O [Peptide 11] (H-FVPWFSKF[dL][Aic]RIL-NH2) | MIC Values | µM | 25 |
| CC[C@H](C)[C@H](NC(=O)[C@H](CCCNC(=N)N)NC(=O)[C@@H]1C[C@@H](O)CN1C(=O)[C@@H](CC(C)C)NC(=O)[C@H](Cc1ccccc1)NC(=O)[C@H](CCCCN)NC(=O)[C@H](CO)NC(=O)[C@H](Cc1ccccc1)NC(=O)[C@H](Cc1c[nH]c2ccccc12)NC(=O)[C@@H]1CCCN1C(=O)[C@@H](NC(=O)[C@@H](N)Cc1ccccc1)C(C)C)C(=O)N[C@@H](CC(C)C)C(N)=O [Peptide 4] (H-FVPWFSKF[dL][Hyp]RIL-NH2) | MIC Values | µM | 25 |
| CC[C@H](C)[C@H](NC(=O)[C@H](CCCNC(=N)N)NC(=O)[C@@H]1CCCN1C(=O)[C@@H](CC(C)C)NC(=O)[C@H](Cc1ccccc1)NC(=O)[C@H](CCCCN)NC(=O)[C@H](CO)NC(=O)[C@H](Cc1ccccc1)NC(=O)[C@H](Cc1c[nH]c2ccccc12)NC(=O)[C@@H]1CCCN1C(=O)[C@@H](NC(=O)[C@@H](N)Cc1ccccc1)C(C)C)C(=O)N[C@@H](CC(C)C)C(N)=O [Peptide 2] (H-FVPWFSKF[dL]PRIL-NH2) | MIC Values | µM | 25 |
| CC[C@H](C)[C@H](NC(=O)[C@H](CCCNC(=N)N)NC(=O)[C@H]1CCCN1C(=O)[C@@H](CC(C)C)NC(=O)[C@H](Cc1ccccc1)NC(=O)[C@H](CCCCN)NC(=O)[C@H](CO)NC(=O)[C@H](Cc1ccccc1)NC(=O)[C@H](Cc1c[nH]c2ccccc12)NC(=O)[C@@H]1CCCN1C(=O)[C@@H](NC(=O)[C@@H](N)Cc1ccccc1)C(C)C)C(=O)N[C@@H](CC(C)C)C(N)=O [Peptide 3] (H-FVPWFSKF[dL][dP]RIL-NH2) | MIC Values | µM | 25 |
| CC[C@H](C)[C@H](NC(=O)[C@H](CCCNC(=N)N)NC(=O)[C@H](CCCCN)NC(=O)[C@@H](CC(C)C)NC(=O)[C@H](Cc1ccccc1)NC(=O)[C@H](CCCCN)NC(=O)[C@H](CO)NC(=O)[C@H](Cc1ccccc1)NC(=O)[C@H](Cc1c[nH]c2ccccc12)NC(=O)[C@@H]1CCCN1C(=O)[C@@H](NC(=O)[C@@H](N)Cc1ccccc1)C(C)C)C(=O)N[C@@H](CC(C)C)C(N)=O [Peptide 7] (H-FVPWFSKF[dL]KRIL-NH2; N-terminus assumed) | MIC Values | µM | 12.5 |

// moving on: another record for MIC Values
IN: Lab note: need MIC Values for CC[C@H](C)[C@H](NC(=O)[C@H](CCCNC(=N)N)NC(=O)CNC(=O)[C@@H](CC(C)C)NC(=O)[C@H](Cc1ccccc1)NC(=O)[C@H](CCCCN)NC(=O)[C@H](CO)NC(=O)[C@H](Cc1ccccc1)NC(=O)[C@H](Cc1c[nH]c2ccccc12)NC(=O)[C@@H]1CCCN1C(=O)[C@@H](NC(=O)[C@@H](N)Cc1ccccc1)C(C)C)C(=O)N[C@@H](CC(C)C)C(N)=O [Peptide 1] (H-FVPWFSKF[dL]GRIL-NH2) on M. pachydermatis, anyone have it?
OUT: 25
